Please go through the items and note down their hERG current change (%, negative = inhibition) at 10uM.
# Assayed System: human ether-à-go-go-related gene (hERG) potassium channel (human, UniProt Q12809);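 further: peak tail current of the secondary pulse compared with the same well before compound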
# Sequence (Q12809 whole entry, looked up): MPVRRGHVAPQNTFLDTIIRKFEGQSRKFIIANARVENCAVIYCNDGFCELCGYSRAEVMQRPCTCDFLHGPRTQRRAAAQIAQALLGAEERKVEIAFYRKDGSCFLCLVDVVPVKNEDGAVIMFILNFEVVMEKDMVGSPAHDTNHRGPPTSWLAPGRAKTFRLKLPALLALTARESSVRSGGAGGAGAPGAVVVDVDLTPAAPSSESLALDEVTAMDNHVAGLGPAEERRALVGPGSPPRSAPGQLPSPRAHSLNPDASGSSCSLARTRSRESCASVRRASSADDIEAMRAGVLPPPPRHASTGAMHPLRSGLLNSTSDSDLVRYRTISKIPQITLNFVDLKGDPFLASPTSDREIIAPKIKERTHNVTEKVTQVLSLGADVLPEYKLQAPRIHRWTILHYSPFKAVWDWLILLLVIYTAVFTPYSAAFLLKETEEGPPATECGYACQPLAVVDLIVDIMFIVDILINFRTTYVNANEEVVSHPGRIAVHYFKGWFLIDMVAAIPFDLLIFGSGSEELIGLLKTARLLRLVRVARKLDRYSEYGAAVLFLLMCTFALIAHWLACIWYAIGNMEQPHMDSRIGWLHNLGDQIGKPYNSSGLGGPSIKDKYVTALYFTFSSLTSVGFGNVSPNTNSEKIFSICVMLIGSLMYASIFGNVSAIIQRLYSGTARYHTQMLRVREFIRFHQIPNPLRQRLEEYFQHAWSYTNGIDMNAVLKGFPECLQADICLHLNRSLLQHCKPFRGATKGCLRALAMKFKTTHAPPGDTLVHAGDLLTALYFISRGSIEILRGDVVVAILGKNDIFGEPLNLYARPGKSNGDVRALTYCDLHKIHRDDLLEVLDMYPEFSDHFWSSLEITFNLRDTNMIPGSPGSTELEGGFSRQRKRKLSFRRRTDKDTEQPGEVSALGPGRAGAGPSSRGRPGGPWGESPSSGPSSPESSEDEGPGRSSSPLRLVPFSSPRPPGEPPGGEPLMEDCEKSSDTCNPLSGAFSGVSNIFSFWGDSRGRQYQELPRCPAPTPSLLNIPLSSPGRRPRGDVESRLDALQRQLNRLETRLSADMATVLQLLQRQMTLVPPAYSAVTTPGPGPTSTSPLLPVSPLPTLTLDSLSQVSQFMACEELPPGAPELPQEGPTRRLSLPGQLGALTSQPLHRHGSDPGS
# Assay Procedure: primary screen, population patch clamp on CHO cells stably expressing hERG; higher = less effect of the substance
About 14,000 (4.5%) of roughly 310,000 compounds showed an effect of 50% or more. The effect is printed as a negative number. Shown is part of a subset that was picked to be rich in strong results.
Number only, in %; omit the unit.

Prompt: Find hERG current change (%, negative = inhibition) at 10uM (human ether-à-go-go-related gene (hERG) potassium channel (human, UniProt Q12809)) for the entry CC(=O)N1CCN(CCN=CC2=C(O)CC(c3ccco3)CC2=O)CC1 (stereo not shown)
Completion: 1.17

Prompt: Fill in the recorded hERG current change (%, negative = inhibition) at 10uM for this molecule, with human ether-à-go-go-related gene (hERG) potassium channel (human, UniProt Q12809) as test system: CCC(=O)N1CCN(CCN=CC2=C(O)CC(c3cccs3)CC2=O)CC1 (stereo not shown)
Completion: -9.43

Prompt: Hello, I am looking for reported hERG current change (%, negative = inhibition) at 10uM with human ether-à-go-go-related gene (hERG) potassium channel (human, UniProt Q12809) for CC(C)C(=O)N1CCN(CCN=CC2=C(O)CC(c3ccco3)CC2=O)CC1 (stereo not shown) . Could you help?
Completion: 0.717

Prompt: Please state recorded hERG current change (%, negative = inhibition) at 10uM (tested on human ether-à-go-go-related gene (hERG) potassium channel (human, UniProt Q12809)) of O=C(CSc1nnc(-c2ccncc2)n1-c1ccccc1)NC1CC1;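 further: peak tail current of the secondary pulse compared with the same well before compound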
Completion: 4.69

Prompt: Give hERG current change (%, negative = inhibition) at 10uM (human ether-à-go-go-related gene (hERG) potassium channel (human, UniProt Q12809)) of the following molecule: COc1ccc(NC(=S)NC(NC(=O)CCl)C(Cl)(Cl)Cl)c([N+](=O)[O-])c1 (stereo not shown)
Completion: 17.2

Prompt: Checklist item: hERG current change (%, negative = inhibition) at 10uM tested on human ether-à-go-go-related gene (hERG) potassium channel (human, UniProt Q12809), entry COC(C[C@H]1O[C@H]1C(=O)[C@H](C)OCc1ccccc1)OC , value?;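 further: peak tail current of the secondary pulse compared with the same well before compound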
Completion: 14.5

Prompt: What hERG current change (%, negative = inhibition) at 10uM appears in the records for this molecule with human ether-à-go-go-related gene (hERG) potassium channel (human, UniProt Q12809)? C=CCn1c(SCc2c(F)cccc2Cl)nnc1-c1ccco1
Completion: -19.3

Prompt: Find the measured hERG current change (%, negative = inhibition) at 10uM: item CC(=O)N1CCN(CCN=CC2=C(O)CC(c3cccs3)CC2=O)CC1 (stereo not shown) , target or system human ether-à-go-go-related gene (hERG) potassium channel (human, UniProt Q12809).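 Further: peak tail current of the secondary pulse compared with the same well before compound.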
Completion: 8.53

Prompt: What hERG current change (%, negative = inhibition) at 10uM appears in the records for this molecule with human ether-à-go-go-related gene (hERG) potassium channel (human, UniProt Q12809)? Cc1ccc(S(=O)(=O)N(C)C)cc1NC(=S)N1CCc2ccccc21
Completion: 11.5

Prompt: Hello, I am looking for reported hERG current change (%, negative = inhibition) at 10uM with human ether-à-go-go-related gene (hERG) potassium channel (human, UniProt Q12809) for COc1ccc(N(C)S(=O)(=O)c2cccc(C(=O)Nc3nc(C)c(C(C)=O)s3)c2)cc1 . Could you help?
Completion: 7.14
